# Test system: Saccharomyces cerevisiae
# protocol.description: protein stability index of tFT-peptide fusion (C-terminal peptide) (PSI (0-1 scale)); higher = more stable (slower turnover)
# details: genetic background: wild type; temperature: 30 C
Overview of recorded protein stability index for various sequences
measurement.type: protein stability index

- YKPKGSKKFKNK: 0.624
- GRVGFSRSFKCC: 0.641
- FTERVVEKFVLY: 0.633
- KEKKNNRQRKER: 0.642
- RRGWVRWRVGAA: 0.667
- PLPLPYCQASPV: 0.658
- WFCYFSLYVFLL: 0.214
- PPGPPPPLPISP: 0.724
- PPSSPCLRPSPP: 0.683
- NKNKENMKRKTK: 0.682
- FLSRCSVRPVTY: 0.668
- FVWSGVGCWSEA: 0.701
- TVRLPLILPCVL: 0.488
- IKKKKKKGIILD: 0.71
- LSLSPLHRSSFR: 0.695
- PRKTRSTTTRKS: 0.593
- AKVKIENKHRRK: 0.716
- IRDKTSIRKLEK: 0.677
- SGPSWSGGGWGR: 0.648

* * *

# System: Saccharomyces cerevisiae
# protocol.description: protein stability index of tFT-peptide fusion (C-terminal peptide) (PSI (0-1 scale)); higher = more stable (slower turnover)
# details: genetic background: wild type; temperature: 30 C
I would appreciate it if you labelled entries Condition met when protein stability index is 0.7 or higher, otherwise Condition not met.

• SPRFLLNCWGRL = Condition met
• SDRLLYLGNYDV = Condition met
• KKKKKKKETKKR = Condition not met
• PPHRTLLQLRTN = Condition not met
• TPKETGNNNMPN = Condition not met
• QGIKRPSSNKSK = Condition met
• EGGERGSKIVDT = Condition not met
• CIFTVINNTPYC = Condition met
• CTRGVVSPKLFV = Condition met
• AFLWSLFVFFRF = Condition not met
• PPCTVHPLPRLP = Condition met
• CGSFWVNVLCAV = Condition not met
• RLNRSRAVTFRI = Condition not met
• TPASPSPPPRPP = Condition not met
• QVLISLYVHGYF = Condition not met
• PTTTPPPTPITG = Condition met
• RGLGGGAECGRW = Condition met
• ASPCTVAQDPRT = Condition not met
• LDGSQDGANRRT = Condition met
• GKRRKKDGNKKR = Condition not met
• FLLYRFSLVGCF = Condition not met
• VPPSYDLPLFPF = Condition not met
• DTSNRRFAYRRS = Condition not met
• TCFWFTCSDPFF = Condition met
• PPAPPPPLPPPP = Condition not met
• KSSNIINQKRIT = Condition not met
• PLLPATFLPATP = Condition met
• ARVRAREGGDRG = Condition not met
• SRLGLLTDGVYA = Condition not met
• RGRSGASSGWRG = Condition not met
• FLSARVSSSLLL = Condition not met
• WWWGGVRGGMGG = Condition met
• VPSAFLYLVGSL = Condition not met
• VLGGRWDGVGGV = Condition not met
• KALQRKCRKRHK = Condition not met
• GVCWCVLFVVGC = Condition not met
• RLKFHRLVMTGY = Condition not met
• DRRKRMLLLEHP = Condition met
• FYLSFWFLIFFF = Condition not met
• GWSRRFFCLFIV = Condition not met
• PSDLFGIQQSLL = Condition met
• GCWRVELLVFMC = Condition not met
• FQPTYCVHKQNK = Condition met
• QPPPPPPRPPPP = Condition not met
• PPRLVPPTPPSS = Condition not met
• LAVNGEIERVCD = Condition not met
• RLPRRSVGRSTG = Condition not met
• FSCEVSFAGLIV = Condition not met
• LEVLGVPQLIRS = Condition not met
• CCVGVGTRLGFA = Condition not met
• LEQAGFWWPKGL = Condition met
• GGGREGNGRERS = Condition not met

* * *

# Test system: Saccharomyces cerevisiae
# protocol.description: protein stability index of tFT-peptide fusion (C-terminal peptide) (PSI (0-1 scale)); higher = more stable (slower turnover)
# details: genetic background: wild type; temperature: 30 C
measurement.type: protein stability index

- PPAPPHPPPFPP: 0.589
- GVEVSVFFFHFL: 0.576
- FVRGWGIVFSLA: 0.41
- SPTPSLPFPALF: 0.737
- PPPPLPPLTPLS: 0.651
- LVQVGDKRFNRL: 0.651
- FGGGLGGGVVLV: 0.692
- SVVGGVVVELEG: 0.65
- RSPPPPPGPRFP: 0.698
- VLSLLGVLFCLF: 0.634
- LALFPDPSSIIL: 0.777
- LRARMACPLIIS: 0.663
- QTDRPPPVSPPR: 0.671
- LGSIKCKLSSGI: 0.666
- LFFLPSVLPFHC: 0.636
- CVDWGAVGLVAG: 0.598
- GNSAGSGGGGRF: 0.706
- CRLRYSILWFRL: 0.152
- IYAQFCSLYDHP: 0.702
- GKEKRKEGERRK: 0.697
- LGDPPCRMIVVR: 0.466
- SKKRHSKNRKSV: 0.71
- PPLPFSSSRFPS: 0.666
- FNNTSFALRSQA: 0.741
- SSDFVFGHRFCR: 0.693
- CSDISASTVSRL: 0.715
- KVRDTFRDFGLM: 0.673
- AGGKGVGRGWGL: 0.698
- PLVSLLPHPRAA: 0.495
- FRRGGVERGVEG: 0.723
- GPHATYLYLVLA: 0.238
- VLICGLNYLSLC: 0.64
- PPPFCPCNRLNG: 0.702
- TYGPSLPVHAVT: 0.686
- PSPLCDFTRSSI: 0.659
- ERQSMNKRERNP: 0.683
- APPSPPPPTSHP: 0.777
- SDIHSSMTSGSF: 0.669
- KKDTTRGENYKP: 0.767
- ELKGRQLGSNLK: 0.691
- LFPPRVSLPSHT: 0.663
- PPPPVPLPPPRL: 0.713
- HFPLSLSPPPPP: 0.721
- HGAPLPTSAPKH: 0.727
- PPLYFFSPMAFF: 0.783
- GGYSNRNVEVIV: 0.632
- ARGCRRWRVLRR: 0.77
- PHVSALSRDPES: 0.716
- CSKLYGAFANTF: 0.644
- PPPPPPSLPLPP: 0.671
- LSPQKRDSAVTR: 0.638
- RAKLKKNKRRCK: 0.719
- KIKKKKYTKYTK: 0.553
- TPRYVGLIKINK: 0.676
- LLRIFLPLLYLL: 0.194
- VGVPAGQRRLAS: 0.718
- KKKEHQKIKNER: 0.675
- PPPLPALRPPSH: 0.719
- TSRCQIGIALGG: 0.695
- KIRDECFQPVNR: 0.674
- VSSCLHDYSAIY: 0.744
- FLQSRGWVCNHL: 0.655
- VGGLAFSTSSIW: 0.809
- HGTAQGVRRQGV: 0.711
- VYRVTGSWLMWV: 0.434
- VLILFFLVVFYV: 0.262
- SDLQVMKLRSVC: 0.398
- SLARGFVVPMWP: 0.707
- DSDIIDYKMEII: 0.722
- PFPPPPPPPMPT: 0.691
- NFCVLLQFCVLV: 0
- SGSSRLRTSPTG: 0.814
- SRLPSYVSACSF: 0.671
- PPVPDSFAAFLR: 0.743
- NKQNKEIQPKRK: 0.653
- APSELSSRPFLL: 0.707
- DTDRRWLGTFLV: 0.534
- GVCLGFICVGFC: 0.444
- VFLYVYAVWFLV: 0.164
- YVGLSSRSFLSF: 0.687
- AHGASLCVPPSP: 0.512
- ISGRRPWGFGGE: 0.642

* * *

# System: Saccharomyces cerevisiae;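 note: PSI is a weighted mean of sequencing reads over stability bins, variants kept only with over 10 reads, mCherry proximal and sfGFP distal, peptide attached via GGGS linker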
# protocol.description: protein stability index of tFT-peptide fusion (C-terminal peptide) (PSI (0-1 scale)); higher = more stable (slower turnover)
# details: genetic background: wild type; temperature: 30 C
measurement.type: protein stability index

• YTPPNTLCPPVA = 0.703
• FLLYVITYRSET = 0.335
• KTGVRAVSLTGS = 0.696
• HPPYRHHPAPLR = 0.673
• VCVARICIWDFL = 0.51
• SFFFLVPFSVFL = 0.586
• PLLPPSSVPTPS = 0.784
• LIPFAFVHPVFL = 0.62
• AWGWGGTGSAGA = 0.71
• QPPPPSPPPPLP = 0.653
• VLRLVLFVLISV = 0.337
• GGGVDSGWGKGE = 0.688
• DPKQVRIQSSWL = 0.743
• SVWDGSRVKCST = 0.704
• WVSFFILYCVYR = 0.232
• PTPPVPPPRTLL = 0.667
• DLRGDYCAGARV = 0.685
• PISGFLRPPPPF = 0.663
• GSRSPEARARFV = 0.687
